# Test system: hLTBP1-proTGFβ1, hLTBP3-proTGFβ1, hGARP-proTGFβ1 and hLRRC33-proTGFβ1
# method: MSD-SET, binding profile and bias across the four human LLCs
# statedConditions: ratio of average KD cell-associated / matrix-associated
readoutLabel: (H) G/D (fold bias) (fold)
Numeric answer only, unit fold assumed.

Study these solved cases before continuing.
Ab33: proTGFβ1 antibody; VH SEQ ID NO: 141, VL SEQ ID NO: 15 (antibody, V domains shown) VH: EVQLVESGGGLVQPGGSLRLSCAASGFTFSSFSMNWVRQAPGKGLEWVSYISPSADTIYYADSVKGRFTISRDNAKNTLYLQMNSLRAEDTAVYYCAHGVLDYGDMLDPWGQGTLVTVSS VL: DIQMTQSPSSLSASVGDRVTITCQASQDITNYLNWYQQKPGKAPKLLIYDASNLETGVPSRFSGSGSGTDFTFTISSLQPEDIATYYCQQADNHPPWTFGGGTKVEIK :: 3.00
Ab31: proTGFβ1 antibody; VH SEQ ID NO: 139, VL SEQ ID NO: 15 (antibody, V domains shown) VH: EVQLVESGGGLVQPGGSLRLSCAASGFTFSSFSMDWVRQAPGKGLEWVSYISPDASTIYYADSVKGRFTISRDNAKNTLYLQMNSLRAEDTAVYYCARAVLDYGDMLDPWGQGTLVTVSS VL: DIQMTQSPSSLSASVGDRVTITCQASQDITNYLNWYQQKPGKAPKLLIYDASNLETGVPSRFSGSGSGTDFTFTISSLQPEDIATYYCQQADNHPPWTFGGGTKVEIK :: 3.41
Ab32: proTGFβ1 antibody; VH SEQ ID NO: 140, VL SEQ ID NO: 15 (antibody, V domains shown) VH: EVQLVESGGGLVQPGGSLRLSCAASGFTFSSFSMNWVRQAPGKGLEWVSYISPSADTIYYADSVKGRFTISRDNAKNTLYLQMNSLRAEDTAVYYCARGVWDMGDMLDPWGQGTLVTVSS VL: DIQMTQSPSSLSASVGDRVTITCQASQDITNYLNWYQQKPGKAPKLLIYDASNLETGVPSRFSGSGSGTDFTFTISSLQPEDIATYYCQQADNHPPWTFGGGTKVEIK :: 1.60
Ab30: proTGFβ1 antibody; VH SEQ ID NO: 138, VL SEQ ID NO: 15 (antibody, V domains shown) VH: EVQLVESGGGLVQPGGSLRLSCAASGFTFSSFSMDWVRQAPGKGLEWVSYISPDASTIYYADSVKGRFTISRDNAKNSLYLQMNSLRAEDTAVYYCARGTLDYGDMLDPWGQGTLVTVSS VL: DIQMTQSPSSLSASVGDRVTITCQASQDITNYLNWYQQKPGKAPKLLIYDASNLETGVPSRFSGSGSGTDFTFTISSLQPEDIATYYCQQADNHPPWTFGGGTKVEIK :: 2.80

// next item, (H) G/D (fold bias) requested
Prompt line: What measured (H) G/D (fold bias) goes with Ab29: proTGFβ1 antibody; VH SEQ ID NO: 137, VL SEQ ID NO: 15 (antibody, V domains shown) VH: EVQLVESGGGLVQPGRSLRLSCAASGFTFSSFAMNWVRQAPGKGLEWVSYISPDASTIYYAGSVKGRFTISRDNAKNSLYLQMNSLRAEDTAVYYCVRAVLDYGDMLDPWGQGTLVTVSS VL: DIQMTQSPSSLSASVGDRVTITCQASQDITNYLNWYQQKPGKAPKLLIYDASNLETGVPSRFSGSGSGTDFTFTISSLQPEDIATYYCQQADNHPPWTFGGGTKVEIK ?
Response line: 2.00
